assay: BSK_LPS_PGE2: BioMAP Diversity Plus: LPS Assay for Prostaglandin E2 (PGE2) Biomarker Activity (AID 2283082)
experimental-context: primary human HUVEC with PBMC; actives raise or lower the signal
Activity calls are given as the source filed them. How the source made its calls: active means hit-call score of the fitted dose curve at least 0.9, where 1 is the maximum; inactive means score below 0.9.
# output must be one of YES = active, NO = inactive

[[record]]
compound = "O=C(c1ccc(O)cc1O)c1ccc(O)cc1O"
assigned_label = "NO"

[[record]]
compound = "CCN(Cc1c(F)cccc1Cl)c1c([N+](=O)[O-])cc(C(F)(F)F)cc1[N+](=O)[O-]"
assigned_label = "NO"

[[record]]
compound = "CCN(CC)C(=O)c1cccc(C)c1"
assigned_label = "NO"

[[record]]
compound = "CC(=O)S[C@@H]1CC2=CC(=O)CC[C@]2(C)[C@H]2CC[C@@]3(C)[C@@H](CC[C@@]34CCC(=O)O4)[C@H]12"
assigned_label = "YES"

[[record]]
compound = "Cc1nn(C)c(Oc2ccccc2)c1C=NOCc1ccc(C(=O)OC(C)(C)C)cc1"
assigned_label = "YES"

[[record]]
compound = "c1ccc2[nH]c(-c3cscn3)nc2c1"
assigned_label = "NO"


[in] # lookup: test call for CCCCOC(=O)C(C)Oc1ccc(Oc2ccc(C(F)(F)F)cn2)cc1 (stereo unspecified)
[out] NO

###

measured-on: Transcription factor Sp1 (Homo sapiens) (UniProt P08047)
Sequence (P08047 whole entry, looked up): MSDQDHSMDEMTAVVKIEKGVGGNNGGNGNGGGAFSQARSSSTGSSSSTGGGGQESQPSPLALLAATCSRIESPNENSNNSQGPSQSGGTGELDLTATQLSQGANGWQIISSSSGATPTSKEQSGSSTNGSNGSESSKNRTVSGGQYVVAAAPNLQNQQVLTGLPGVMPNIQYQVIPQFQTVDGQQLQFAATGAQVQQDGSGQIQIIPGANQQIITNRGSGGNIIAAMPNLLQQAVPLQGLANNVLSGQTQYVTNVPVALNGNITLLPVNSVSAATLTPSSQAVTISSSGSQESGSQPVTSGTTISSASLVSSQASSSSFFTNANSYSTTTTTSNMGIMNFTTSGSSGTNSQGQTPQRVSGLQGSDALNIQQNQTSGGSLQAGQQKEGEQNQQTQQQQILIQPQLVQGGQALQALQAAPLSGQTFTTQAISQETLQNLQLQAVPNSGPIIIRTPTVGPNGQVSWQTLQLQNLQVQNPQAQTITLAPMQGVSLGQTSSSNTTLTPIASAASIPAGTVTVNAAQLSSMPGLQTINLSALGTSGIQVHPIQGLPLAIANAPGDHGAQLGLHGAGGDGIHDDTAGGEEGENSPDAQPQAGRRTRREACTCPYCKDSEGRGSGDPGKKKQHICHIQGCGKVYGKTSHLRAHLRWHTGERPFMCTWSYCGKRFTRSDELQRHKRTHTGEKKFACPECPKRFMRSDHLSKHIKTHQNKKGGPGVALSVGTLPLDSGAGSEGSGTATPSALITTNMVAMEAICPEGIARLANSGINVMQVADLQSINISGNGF
assay: ATG_Sp1_CIS: Attagene CIS-FACTORIAL HepG2 Assay for human Specificity Protein 1 (Sp1) (AID 2282961)
experimental-context: HepG2 Sp1 cis-reporter transcription, actives raise or lower the signal
Activity calls are given as the source filed them. The calls were made as follows: active = hit-call score of the fitted dose curve at least 0.9, where 1 is the maximum; inactive = score below 0.9.
Lab note: assign the record to one of 1 for active, -1 for inactive

[[record]]
compound = "CCC(C)OC(=O)N1CCCCC1CCO (stereo unspecified)"
assigned_label = -1

[[record]]
compound = "CC(C)(C)[C@@H](O)[C@@H](Cc1ccc(Cl)cc1)n1cncn1"
assigned_label = -1

[[record]]
compound = "COC(=O)c1ccccc1S(=O)(=O)NC(=O)Nc1nc(OC(F)F)cc(OC(F)F)n1"
assigned_label = -1

[[record]]
compound = "CCCN(CCC)C(=O)SCC"
assigned_label = -1

[[record]]
compound = "c1ccc2[nH]c(-c3cscn3)nc2c1"
assigned_label = -1

[[record]]
compound = "C#CCOC(=O)[C@@H](C)Oc1ccc(Oc2ncc(Cl)cc2F)cc1"
assigned_label = -1


# evaluate next
[in] Assay result, entry CCN(Cc1c(F)cccc1Cl)c1c([N+](=O)[O-])cc(C(F)(F)F)cc1[N+](=O)[O-] — outcome?
[out] -1

###

measured-on: Heat shock factor protein 1 (Homo sapiens) (UniProt Q00613)
Sequence (Q00613 whole entry, looked up): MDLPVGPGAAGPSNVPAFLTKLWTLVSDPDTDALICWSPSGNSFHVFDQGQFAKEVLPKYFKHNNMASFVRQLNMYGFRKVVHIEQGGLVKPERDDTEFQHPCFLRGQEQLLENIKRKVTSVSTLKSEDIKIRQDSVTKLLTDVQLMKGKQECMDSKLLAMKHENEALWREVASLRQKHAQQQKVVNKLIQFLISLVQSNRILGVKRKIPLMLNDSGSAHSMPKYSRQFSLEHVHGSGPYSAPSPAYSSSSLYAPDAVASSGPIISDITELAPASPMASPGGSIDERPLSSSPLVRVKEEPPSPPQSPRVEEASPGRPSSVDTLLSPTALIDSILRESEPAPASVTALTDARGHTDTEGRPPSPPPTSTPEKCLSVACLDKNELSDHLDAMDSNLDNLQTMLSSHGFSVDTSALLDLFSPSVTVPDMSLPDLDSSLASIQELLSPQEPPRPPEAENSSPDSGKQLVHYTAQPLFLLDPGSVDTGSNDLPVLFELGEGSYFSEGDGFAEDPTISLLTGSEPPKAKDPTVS
assay: ATG_HSE_CIS: Attagene CIS-FACTORIAL HepG2 Assay for human Heat Shock Transcription Factor 1 (HSE) (AID 2282953)
experimental-context: HepG2 HSE cis-reporter, Attagene RNA transcription; actives raise or lower the signal
Description: ATG_CIS is a cell-based, multiplexed-readout assay that uses HepG2, a human liver cell line, with measurements taken at 24 hours after chemical dosing in a 24-well plate.ATG_HSE_CIS is one of 52 assay component(s) measured or calculated from the ATG_CIS assay. […] This assay endpoint, ATG_HSE_CIS, was analyzed with bidirectional fitting relative to DMSO as the negative control and baseline of activity. […]
Calls of active or inactive are those of the source. Rule for the calls: active = hit-call score of the fitted dose curve at least 0.9, where 1 is the maximum; inactive = score below 0.9.
I would appreciate it if you answered using one of these outcomes: active, inactive

[in] Recorded test outcome, item CCCCC(CC)COC(=O)c1ccccc1C(=O)O (configuration not stated)
[out] inactive

[in] Given CCCCCOC(=O)COc1cc(N2C(=O)C3=C(CCCC3)C2=O)c(F)cc1Cl , state the outcome it received in this test.
[out] active

[in] State the result this test recorded for COC(=O)c1ccc(I)cc1S(=O)(=O)NC(=O)Nc1nc(C)nc(OC)n1 .
[out] inactive

[in] Lab log entry: COC(=O)c1cccc(C)c1S(=O)(=O)NC(=O)Nc1nc(OCC(F)(F)F)nc(N(C)C)n1 — outcome as called in the assay?
[out] inactive
